The values you see were collected from patent US10556902B2.

- EXPERIMENTAL TARGET: His-Tagged hOGA (human O-GlcNAcase) (Homo sapiens (Human), UniProt O60502)
- Sequence (O60502 whole entry): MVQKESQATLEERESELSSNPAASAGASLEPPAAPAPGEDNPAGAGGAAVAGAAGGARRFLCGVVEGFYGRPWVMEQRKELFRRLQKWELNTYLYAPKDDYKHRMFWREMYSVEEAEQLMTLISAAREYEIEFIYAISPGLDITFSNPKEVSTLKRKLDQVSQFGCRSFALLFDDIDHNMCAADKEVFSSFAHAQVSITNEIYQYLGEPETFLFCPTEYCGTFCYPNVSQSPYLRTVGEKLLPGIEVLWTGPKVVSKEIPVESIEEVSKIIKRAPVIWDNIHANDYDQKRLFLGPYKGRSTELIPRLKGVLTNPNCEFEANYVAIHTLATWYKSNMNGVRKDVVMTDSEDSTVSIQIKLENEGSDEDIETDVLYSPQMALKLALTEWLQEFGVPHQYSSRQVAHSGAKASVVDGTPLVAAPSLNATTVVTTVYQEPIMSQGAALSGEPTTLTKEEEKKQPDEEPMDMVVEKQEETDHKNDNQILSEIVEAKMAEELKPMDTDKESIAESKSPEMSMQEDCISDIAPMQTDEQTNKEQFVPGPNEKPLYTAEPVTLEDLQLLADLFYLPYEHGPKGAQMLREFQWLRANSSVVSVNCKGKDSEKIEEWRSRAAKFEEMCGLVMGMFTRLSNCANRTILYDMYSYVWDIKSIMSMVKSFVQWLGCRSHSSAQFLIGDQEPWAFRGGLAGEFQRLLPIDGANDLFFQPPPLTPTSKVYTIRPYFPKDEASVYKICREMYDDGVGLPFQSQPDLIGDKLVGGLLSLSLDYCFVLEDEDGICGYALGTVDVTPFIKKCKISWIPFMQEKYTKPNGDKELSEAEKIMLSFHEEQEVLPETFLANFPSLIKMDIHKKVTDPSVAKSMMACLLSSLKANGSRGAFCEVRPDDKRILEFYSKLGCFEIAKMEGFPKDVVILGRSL
- EXPERIMENT: Human O-GlcNAcase enzyme inhibition assay;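 note: reactions contained 20 nM His-tagged hOGA enzyme with 10 µM FL-GlcNAc substrate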
- Format: biochemical
- STATED CONDITIONS: OGA enzyme inhibition assay; FL-GlcNAc substrate, pH 6.5; activity classes defined in μM; read-out: OGA IC50
IC50 values by entry

Sample answers from the record:
MOLECULE	READOUT VALUE
CC(c1ccc2nccnc2c1)N1CCN(c2n[nH]c(=O)s2)CC1 (racemic) [Example 21]	0.05 to 0.2 µM
CC(c1ccc2nccnc2c1)N1CCN(c2ncc(C(C)(C)O)cn2)CC1 (racemic) [Example 85]	0.05 to 0.2 µM
CC(=O)Nc1nnc(N2CCN(C(C)c3ccc4c(c3)OCC4)CC2)s1 (single isomer, unassigned) [Example 109]	< 0.05 µM

Req: For the molecule CC(c1ccc2nccnc2c1)N1CCN(c2nnc(C(=O)N(C)C)s2)CC1 (racemic) [Example 122] , give its measured IC50 value.
Resp: 0.2 to 1 µM

====

- EXPERIMENTAL TARGET: His-Tagged hOGA (human O-GlcNAcase) (Homo sapiens (Human))
- EXPERIMENT: Human O-GlcNAcase enzyme inhibition assay
- Assay type: biochemical
- STATED CONDITIONS: OGA enzyme inhibition assay; FL-GlcNAc substrate, pH 6.5; activity classes defined in μM; read-out: OGA IC50
IC50 values by entry

Sample answers from the record:
MOLECULE	IC50
CC(c1ccc2c(c1)OCC2)N1CCN(c2ncc(C(O)C(F)(F)F)cn2)CC1 (racemic)	< 0.05 µM
COC(=O)c1cccc(N2CCN(C(C)c3ccc4nccnc4c3)CC2)n1 (racemic)	0.2 to 1 µM

Req: For the molecule CC(c1ccc2c(c1)OCC2)N1CCN(c2ccc(C(C)(C)O)cn2)CC1 (racemic) , give its measured IC50 value.
Resp: < 0.05 µM

Req: For the molecule CCOC(=O)c1nnc(N2CCN(C(C)c3ccc4nccnc4c3)CC2)s1 (racemic) , give its measured IC50 value.
Resp: 1 to 10 µM

Req: For the molecule CC(c1ccc2c(c1)OCC2)N1CCN(c2nnc(C(=O)N(C)C)s2)CC1 (racemic) , give its measured IC50 value.
Resp: < 0.05 µM

Req: For the molecule CC(c1ccc2c(c1)OCC2)N1CCN(c2ncc(C(C)(C)O)cn2)CC1 (racemic) , give its measured IC50 value.
Resp: < 0.05 µM

Req: For the molecule CNC(=O)c1cnc(N2CCN(C(C)c3ccc4scnc4c3)CC2)nc1 (racemic) , give its measured IC50 value.
Resp: < 0.05 µM

Req: For the molecule CC(c1ccc2nccnc2c1)N1CCN(c2ccc(C(O)C(F)(F)F)cn2)CC1 (racemic) , give its measured IC50 value.
Resp: 0.05 to 0.2 µM

Req: For the molecule COC(=O)c1cnc(N2CCN(C(C)c3ccc4c(c3)OCC4)CC2)nc1 (racemic) , give its measured IC50 value.
Resp: < 0.05 µM

Req: For the molecule CC(c1ccc2c(c1)OCC2)N1CCN(c2ncc(C3(O)CCOCC3)cn2)CC1 (racemic) , give its measured IC50 value.
Resp: < 0.05 µM

Req: For the molecule CC(=O)Nc1nnc(N2CCN(C(C)c3cnc4cccnc4c3)CC2)s1 (racemic) , give its measured IC50 value.
Resp: 0.05 to 0.2 µM

Req: For the molecule CC(c1ccc2nccnc2c1)N1CCN(c2ccc(=O)[nH]c2)CC1 (racemic) , give its measured IC50 value.
Resp: 0.2 to 1 µM

Req: For the molecule CC(c1ccc2nccnc2c1)N1CCN(c2ccc(C(C)(C)O)cn2)CC1 (racemic) , give its measured IC50 value.
Resp: 0.05 to 0.2 µM

Req: For the molecule CC(c1ccc2cccnc2n1)N1CCN(c2ncc(C(F)(F)F)cn2)CC1 (racemic) , give its measured IC50 value.
Resp: 0.05 to 0.2 µM

Req: For the molecule CC(=O)N1CCc2nc(N3CCN(C(C)c4ccc5nccnc5c4)CC3)ncc2C1 (racemic) , give its measured IC50 value.
Resp: 0.05 to 0.2 µM

Req: For the molecule CNC(=O)c1ccc(N2CCN(C(C)c3ccc4c(c3)OCC4)CC2)nc1 (racemic) , give its measured IC50 value.
Resp: < 0.05 µM

Req: For the molecule CC(c1ccc2nccnc2c1)N1CCN(c2ccc(C3(O)CCCCC3)cn2)CC1 (racemic) , give its measured IC50 value.
Resp: 0.2 to 1 µM

Req: For the molecule CC(c1ccc2c(c1)OCC2)N1CCN(c2ncc(C3(O)COC3)cn2)CC1 (racemic) , give its measured IC50 value.
Resp: < 0.05 µM

Req: For the molecule CC(O)c1ccc(N2CCN(C(C)c3ccc4nccnc4c3)CC2)nc1 (racemic) , give its measured IC50 value.
Resp: 0.2 to 1 µM

Req: For the molecule CC(c1ccc2nccnc2c1)N1CCN(c2ccc(C(F)(F)F)nn2)CC1 (racemic) , give its measured IC50 value.
Resp: 0.2 to 1 µM

Req: For the molecule CC(c1ccc2c(c1)OCC2)N1CCC(n2cc(F)cn2)CC1 (racemic) , give its measured IC50 value.
Resp: 0.2 to 1 µM

Req: For the molecule CC(c1ccc2c(c1)OCC2)N1CCN(c2nc3c(s2)CN(C)CC3)CC1 (racemic) , give its measured IC50 value.
Resp: < 0.05 µM

Req: For the molecule CC(c1ccc2nccnc2c1)N1CCN(c2ccc(C3(O)CCOC3)cn2)CC1 (racemic) , give its measured IC50 value.
Resp: 0.05 to 0.2 µM

Req: For the molecule CC(c1ccc2c(c1)OCC2)N1CCN(c2nc3c(s2)C(=O)N(C)CC3)CC1 (racemic) , give its measured IC50 value.
Resp: < 0.05 µM

Req: For the molecule CC(c1ccc2c(c1)OCC2)N1CCN(c2ccc(S(C)(=O)=O)nn2)CC1 (racemic) , give its measured IC50 value.
Resp: < 0.05 µM

Req: For the molecule CC(c1ccc2c(c1)OCC2)N1CCN(c2ncc(CO)cn2)CC1 (racemic) , give its measured IC50 value.
Resp: < 0.05 µM

Req: For the molecule CC(c1ccc2nccnc2c1)N1CCN(c2ccc(S(C)(=O)=O)cn2)CC1 (racemic) , give its measured IC50 value.
Resp: 0.05 to 0.2 µM

Req: For the molecule CC(=O)Nc1cnn(C2CCN(C(C)c3ccc4c(c3)OCC4)CC2)c1 (racemic) , give its measured IC50 value.
Resp: 0.05 to 0.2 µM
